# target.of.assay: Gal(b1-4)GlcNAc(b1-3)Gal(b1-4)GlcNAc(b1-3)Gal(b1-4)GlcNAc(b1-2)[Gal(b1-4)GlcNAc(b1-3)Gal(b1-4)GlcNAc(b1-3)Gal(b1-4)GlcNAc(b1-6)]Man(a1-6)[Gal(b1-4)GlcNAc(b1-3)Gal(b1-4)GlcNAc(b1-3)Gal(b1-4)GlcNAc(b1-2)Man(a1-3)]Man(b1-4)GlcNAc(b1-4)[Fuc(a1-6)]GlcNAc
# protocol.description: glycan array binding signal (z-score within array); higher = stronger binding
# assay.conditions: glycan notation: IUPAC condensed, linker removed
Only a selection was taken, and the strongest signals are over-represented in it overall.
result.type: glycan array binding signal (z-score)

Epa11 (Candida glabrata) (protein) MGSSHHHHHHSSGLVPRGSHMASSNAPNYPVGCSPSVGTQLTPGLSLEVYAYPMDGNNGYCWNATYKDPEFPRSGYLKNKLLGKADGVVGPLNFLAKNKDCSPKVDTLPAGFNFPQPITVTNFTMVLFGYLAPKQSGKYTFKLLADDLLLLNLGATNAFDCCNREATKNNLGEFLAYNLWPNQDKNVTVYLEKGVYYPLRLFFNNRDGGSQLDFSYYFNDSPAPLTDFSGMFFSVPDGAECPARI: 1.94
BIp1-His (Cryptococcus neoformans) (protein) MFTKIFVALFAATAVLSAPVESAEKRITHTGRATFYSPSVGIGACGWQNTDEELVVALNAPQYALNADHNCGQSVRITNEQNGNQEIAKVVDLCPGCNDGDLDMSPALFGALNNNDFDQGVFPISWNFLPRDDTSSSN: 3.26

Below: the item to evaluate.
Item under review: SSR1 (Sclerotium rolfsii), A0A0M3KL30 (protein) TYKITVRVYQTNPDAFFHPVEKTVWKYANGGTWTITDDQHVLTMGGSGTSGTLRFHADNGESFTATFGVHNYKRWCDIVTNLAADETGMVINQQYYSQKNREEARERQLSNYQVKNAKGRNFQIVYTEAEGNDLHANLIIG . Reported glycan array binding signal (z-score)? -0.33

Data origin, for the record: the supplement of paper PMC8728848
